Test system: SF-295 CNS
Experiment: NCI tumour cell line growth inhibition, 48 h; in the data active = GI50 below about 0.43 µM; inactive = the rest
Tick one outcome: active, inactive

Take a look at these entries with their results.
compound=Cc1ccc(Cl)cc1Nc1nc(C(F)(F)F)ccc1C(=O)Nc1cccc(C(F)(F)F)c1 group=inactive
compound="CC(=O)OCC1OC(OC2C(COC(C)=O)OC(OCCC[S-])C(OC(C)=O)C2OC(C)=O)C(OC(C)=O)C(OC(C)=O)C1OC(C)=O.[Au+].c1ccc(CN2[CH-]N(Cc3ccccc3)C(c3ccccc3)=C2c2ccccc2)cc1 (stereo not drawn)" group=inactive
compound="CN1/C(=C\\C(I)C(I)C2=[N+](C)c3ccccc3C2(C)C)C(C)(C)c2ccccc21 (stereo not drawn)" group=active
compound=Cl.[Pt].[c-]1ccccc1-c1ccccn1.c1ccc(P(c2ccccc2)C([PH+](c2ccccc2)c2ccccc2)[PH+](c2ccccc2)c2ccccc2)cc1 group=inactive
compound=COc1ccc(C(=O)c2cc(OC)c(OC)c(OC)c2)cc1OC(C)=O group=active
compound=COc1ccc(-c2oc(=O)ccc2C#Cc2cc(OC)c(OC)c(OC)c2)cc1O group=inactive

Could you please tell me the result logged for CCOC(=O)c1sc(-c2ccc(OS(=O)(=O)c3cccs3)c(C=O)c2)nc1C in this assay?
inactive

Could you please tell me the result logged for CC1(C)N=C(N)N=C(N)N1c1cccc(C#N)c1 in this assay?
inactive

---

Test system: NCI/ADR-RES ovarian
Assay: NCI tumour cell line growth inhibition, 48 h
value_type: TGI (µM)
Answers are plain numbers, in µM.

compound=O=C(NCc1cccnc1)/C(=C\c1ccc(Br)cc1)S(=O)(=O)c1ccccc1 value_type=TGI quantitative_result=5.43
compound=CC(=O)O[C@H]1C#C/C=C\C#CC[C@@H]2C(=O)N(C(=O)OC(C)(C)C)[C@@H]12 value_type=TGI quantitative_result=74.7

Report TGI for every entry below.
1. O=C1c2ccccc2C(=O)c2c1ccc(C(Br)Br)c2[N+](=O)[O-]
2. Cc1ccc(Cl)cc1Nc1nc(C(F)(F)F)ccc1C(=O)Nc1cccc(C(F)(F)F)c1
3. CC(NC(=O)/C(=C/c1ccccc1O)NC(=O)c1ccccc1)C(=O)O (stereo not given)

1: 6.56; 2: 7.66; 3: 33.4

---

System: LOX IMVI melanoma
Experiment: NCI tumour cell line growth inhibition, 48 h
Hi there, I'd appreciate the recorded log10(TGI) for every entry that follows.
The figures below represent log10 of TGI, where TGI is stated in µM.

Known results for compounds:
compound=S=c1nc(-c2ccccc2)oc(=NC2CCCCC2)n1C1CCCCC1 quantitative_result=1.32
compound=COc1cc(-c2cc(-c3ccc(N(C)C)cc3)nc(N3CCOCC3)c2C#N)cc(OC)c1OC quantitative_result=-0.65
compound=CS(=O)(=O)OCCN1CCC2(CC1)SSC1(CCN(CCOS(C)(=O)=O)CC1)S2 quantitative_result=1.99
compound=CCC1(CC)C(=O)CC[C@@]2(C)C1=CC[C@H]1[C@@H]3CC[C@H](O)[C@@]3(C)CC[C@@H]12 quantitative_result=1.58
compound=O=C(O)/C=C(/CC(=O)O)C(=O)O quantitative_result=1.67

Report log10(TGI) for every entry below.
1. Nc1nc(Cl)cc(N=Nc2ccccc2)n1
2. C=CCC(CNC(=O)OCc1ccccc1)O[Si](C)(C)C(C)(C)C (stereo not drawn)

1.83
1.67
